# test details: Example 2: open-label dose-escalation pharmacokinetic and safety study in children and adolescents with ADHD
# Format: in vivo, human
# condition set: both sexes, human, plasma, po, 2 mg, single 2 mg oral dose, Day 1; adolescents 13-17 yrs, ADHD patients, N = 14; read-out: AUC0-t
assay metric: AUC(0-t) (µg·h/mL)
Just the number in µg·h/mL, nothing appended.

// field: AUC(0-t); key: N=C(N)NC(=O)Cc1c(Cl)cccc1Cl ; value = 0.0427

---

# test details: Example 4: Phase I single-dose crossover bioequivalence study, 2.5 mg versus 2 mg tablets, healthy adult volunteers
# Type: in vivo, human
# condition set: human, in vivo, 2.5 mg, AUC0-last
assay metric: AUC(0-t)

// field: AUC(0-t); key: N=C(N)NC(=O)Cc1c(Cl)cccc1Cl [guanfacine] ; value = ~81.3 ng·h/mL

---

# test details: Example 2: open-label dose-escalation pharmacokinetic and safety study in children and adolescents with ADHD
# Type: in vivo, human
# condition set: both sexes, human, plasma, po, 4 mg, Day 28, 4 mg once daily oral; children 6-12 yrs, ADHD patients, N = 14; read-out: AUC0-24
assay metric: AUC(0-t)
Mention the unit after the number when you answer.

// field: AUC(0-t); key: N=C(N)NC(=O)Cc1c(Cl)cccc1Cl ; value = 162 ng·h/mL

---

# test details: Example 2: open-label dose-escalation pharmacokinetic and safety study in children and adolescents with ADHD
# Format: in vivo, human
# condition set: both sexes, human, plasma, oral, 2 mg, dose of 2 mg of guanfacine, fasted patients ages 6-12 suffering from ADHD; read-out: mean Cmax
assay metric: Cmax

// field: Cmax; key: N=C(N)NC(=O)Cc1c(Cl)cccc1Cl [guanfacine] ; value = ~2.55 ng/mL

---

# test details: Example 3: Phase I single-dose crossover bioequivalence/dose proportionality study, 1 mg, 2 mg, 4 mg tablets, healthy adult volunteers
# Assay type: in vivo, human
# condition set: human, in vivo, 4 mg, AUC∞
assay metric: AUC(0-inf)

// field: AUC(0-inf); key: N=C(N)NC(=O)Cc1c(Cl)cccc1Cl [guanfacine] ; value = ~125 ng·h/mL

---

# test details: Example 2: open-label dose-escalation pharmacokinetic and safety study in children and adolescents with ADHD
# Type: in vivo, human
# condition set: both sexes, human, plasma, po, 4 mg, Day 28, 4 mg once daily oral; adolescents 13-17 yrs, ADHD patients, N = 14; read-out: Cmax
assay metric: Cmax

// field: Cmax; key: N=C(N)NC(=O)Cc1c(Cl)cccc1Cl ; value = 7.01 ng/mL

---

# test details: Example 3: Phase I single-dose crossover bioequivalence/dose proportionality study, 1 mg, 2 mg, 4 mg tablets, healthy adult volunteers
# Assay type: in vivo, human
# condition set: human, in vivo, 4 mg, median Tmax
assay metric: Tmax

// field: Tmax; key: N=C(N)NC(=O)Cc1c(Cl)cccc1Cl [guanfacine] ; value = ~5 h

---

# test details: Example 3: Phase I single-dose crossover bioequivalence/dose proportionality study, 1 mg, 2 mg, 4 mg tablets, healthy adult volunteers
# Assay type: in vivo, human
# condition set: human, in vivo, po, 2 mg, t1/2
assay metric: half-life (min)
Just the number in min, nothing appended.

// field: half-life; key: N=C(N)NC(=O)Cc1c(Cl)cccc1Cl ; value = 984

---

# test details: Example 2: open-label dose-escalation pharmacokinetic and safety study in children and adolescents with ADHD
# Type: in vivo, human
# condition set: both sexes, human, plasma, po, 2 mg, single 2 mg oral dose, Day 1; children 6-12 yrs, ADHD patients, N = 14; read-out: Vz/F
# Method: Objective: The objective of this study was to assess the pharmacokinetics of controlled-release guanfacine after a single 2 mg dose or multiple doses of 2 mg and 4 mg from Table 2. Methods: An open-label, dose-escalation study in male and female children (aged 6-12 years) and adolescents (aged 13-17 years) with ADHD. […] Their electrocardiogram readings (ECGs) were within normal ranges, and their blood pressure measurements were within the 95th percentile for their age, height, and gender. […]
assay metric: Vd/F (L)
Just the number in L, nothing appended.

// field: Vd/F; key: N=C(N)NC(=O)Cc1c(Cl)cccc1Cl [guanfacine] ; value = 766
